Molecular target: Cytochrome P450 1A2 (Homo sapiens)
Assay: p450-cyp1a2 (AID 410); further: potency means the concentration at half of the fitted maximal effect
Conditions: recombinant CYP1A2, luciferin-ME demethylation, luminescence; series mostly up to 57 µM
Inconclusive results are not listed. Calls of active or inactive are those of the source. The call rests on the fitted dose curve.
Potency listing for selected compounds.

Answered cases to consult:
(Q) Recall the reported Potency of COc1ccc2[nH]cc(CCNc3nc(-c4ccc(C(=O)N(C)C)cc4)nc4ccccc34)c2c1 when tested on Cytochrome P450 1A2 (Homo sapiens).
(A) 15.8 µM (active)

(Q) Recall the reported Potency of Cc1noc(C)c1-c1nccc(NCc2cccs2)n1 when tested on Cytochrome P450 1A2 (Homo sapiens).
(A) 0.501 µM (active)

(Q) Recall the reported Potency of COc1ccccc1-c1nc(NCc2cccnc2)c2ccccc2n1 when tested on Cytochrome P450 1A2 (Homo sapiens).
(A) 0.794 µM (active)

Let us move to another entry and its Potency.
(Q) Recall the reported Potency of CN(C)C(=O)c1ccc(-c2ccc3ncnc(Nc4ccccc4)c3c2)cc1 when tested on Cytochrome P450 1A2 (Homo sapiens).
(A) 15.8 µM (active)

====

activity, negative = inhibition listing for selected compounds.
Assay: Stat Signaling Pathway (AID 446);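 further: ME-180 cervical cancer cells given 40 pM IL-6 alongside compound; SIE-controlled beta-lactamase reporter measured as 460/530 nm FRET emission ratio; on the % scale 0 is the no-effect control and ±100 the full control effect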
Conditions: ME-180 (cervical carcinoma) SIE beta-lactamase reporter, IL-6 stimulated, 5 h; at 7.69 µM (top of the series) unless noted
Inconclusive results are not listed.
Answer format: numeric, % implied, no suffix.

Answered cases to consult:
(Q) Note down activity, negative = inhibition recorded for O=c1c(-c2cccs2)nc2cnc(Oc3ccccc3)nc2n1Cc1cccs1
(A) 1.3

(Q) Note down activity, negative = inhibition recorded for CN1CCN(c2ncncc2-c2ccccc2Cl)CC1
(A) -1.1

(Q) Note down activity, negative = inhibition recorded for O=C(Oc1ccccc1)N1CCC2(CCCN(c3ncccn3)C2)CC1
(A) -23.6

(Q) Note down activity, negative = inhibition recorded for CN1CCN(c2ccnc(-c3cccnc3)n2)CC1
(A) 12.4

(Q) Note down activity, negative = inhibition recorded for COc1ccc2[nH]cc(CCNc3ncnc4ccc(-c5ccc6c(c5)OCO6)cc34)c2c1
(A) -24.8

(Q) Note down activity, negative = inhibition recorded for Cn1c(=O)c(-c2ccc(Cl)cc2)nc2cnc(Oc3ccccc3)nc21
(A) 2.85

(Q) Note down activity, negative = inhibition recorded for O=S(=O)(c1ccccc1)N1CCC2(CCCN(c3cccc(-c4ccccc4)c3)C2)CC1
(A) -0.269

(Q) Note down activity, negative = inhibition recorded for c1csc(CNc2ncncc2-c2ccoc2)c1
(A) -10.5

Next:
(Q) Note down activity, negative = inhibition recorded for CS(=O)(=O)Nc1cccc(-c2ccc3ncnc(N4CCOCC4)c3c2)c1
(A) -11.8

(Q) Note down activity, negative = inhibition recorded for CN(Cc1ccco1)c1ncnc2ccc(-c3ccc4c(c3)OCO4)cc12
(A) -7.17

====

Test: qHTS Assay for Lipid Storage Modulators (AID 1519); further: on the % scale 0 is the no-effect control and ±100 the full control effect
Conditions: Drosophila S3 cells, BODIPY lipid droplet/cell ratio, laser cytometry; at 57.5 µM (top of the series); cells loaded with oleic acid
Results filed as inconclusive are left out.
ASSAY READOUT: activity change, negative = inhibition (%)
Answer format: numeric, % implied, no suffix.

(Q) Note down activity change, negative = inhibition recorded for COc1ccc2[nH]cc(CCNc3ncnc4ccc(-c5ccccc5C#N)cc34)c2c1
(A) 4.54

(Q) Note down activity change, negative = inhibition recorded for COc1ccc2c(c1)OCC(Cc1ccc(OC)c(OC(C)=O)c1)C2=O (stereo unspecified)
(A) 2.81

(Q) Note down activity change, negative = inhibition recorded for CN(C)CCCO[C@H]1C([C@H](O)CO)O[C@@H]2OC(C)(C)O[C@@H]21 (stereo partly specified)
(A) 1.15

(Q) Note down activity change, negative = inhibition recorded for COCC(=O)N1CCC2(CCCN(c3ccncc3)C2)CC1
(A) 3.88

(Q) Note down activity change, negative = inhibition recorded for FC(F)(F)c1ccccc1-c1cncnc1Nc1ccccc1
(A) 4.42

(Q) Note down activity change, negative = inhibition recorded for CC(C)CN1CC2(CCN(S(=O)(=O)c3ccccc3)CC2)C1
(A) -0.648

(Q) Note down activity change, negative = inhibition recorded for C=CCc1ccc(OC(=O)c2ccccc2)c(OC)c1
(A) 6.62

(Q) Note down activity change, negative = inhibition recorded for Cc1noc(C)c1C(=O)N1CCC2(CC1)CCN(c1ncccn1)CC2
(A) 5.54

(Q) Note down activity change, negative = inhibition recorded for COCCNc1nc(-c2ccccc2C)nc2ccccc12
(A) 7.59

(Q) Note down activity change, negative = inhibition recorded for O=c1c(-c2ccc(F)cc2)nc2cnc(N3CCOCC3)nc2n1-c1ccccc1
(A) -4.64

Next:
(Q) Note down activity change, negative = inhibition recorded for CC(C)NC(=O)N1CC[C@@]2(CCCN(C(=O)c3cnccn3)C2)C1
(A) 3.99

(Q) Note down activity change, negative = inhibition recorded for COc1ccc(NC(=O)N2CCC3(CC2)CCN(S(C)(=O)=O)CC3)cc1
(A) 8.18

(Q) Note down activity change, negative = inhibition recorded for COC(=O)N1CCC2(CC1)CN(c1ccncc1)C2
(A) 3.84

(Q) Note down activity change, negative = inhibition recorded for COc1ccc(NC(=O)N2CCCC3(CCN(C(=O)c4ccncc4)CC3)C2)cc1
(A) 4.52

(Q) Note down activity change, negative = inhibition recorded for COc1ccc(CNc2ccnc(-c3ccccc3CN(C)C)n2)c(OC)c1
(A) 3.1

(Q) Note down activity change, negative = inhibition recorded for O=c1c(O)c(-c2ccc(O)c(O)c2)oc2c(OC3OC(CO)C(O)C(O)C3O)c(O)cc(O)c12 (stereo unspecified)
(A) 0.918
